# target_or_system: Protein farnesyltransferase (Rattus norvegicus)
# assay_remarks: Inhibition of farnesyltransferase assessed as farnesylation of Dansyl-GCVLS peptide
value_kind: IC50 (nM)

CC(C)=CCC/C(C)=C/CC/C(=C/COP(=O)(O)O)C(C)(C)C = 16

[I] C=CC/C(=C\COP(=O)(O)O)CC/C=C(\C)CCC=C(C)C
[II] CC(C)=CCC/C(C)=C/CC/C(=C/COP(=O)(O)O)CC=C(C)C
q: # compare IC50 for I vs II ; return the one with the smaller value Answer = label.
a: I
(I: 13 nM, II: 5000 nM)
